Each record here notes measured apparent KD of MS2 coat protein.
# Test system: MS2 coat protein
# method_summary: apparent KD of MS2 coat protein, switch ON state; designed switch direction (-1 OFF switch, 1 ON switch): 1; higher = weaker reporter binding
# test_parameters: FMN input: 0 or 200 uM; Eterna round: R93 (includes R88 designs)
Give the quantity in nM, number only.

Worked cases, answers included:
AACAGACAUGAGGAUCACCCAUGUAGAAUUAUGGGAGGAUAUACAAAGACGAGAGUCAGAGUAGAAGGCCUAGGAC [salish99-ss1-163]    20
GAAAAACAUGAGGAUCACCCAUGUAGAAAUAUGGGAGGAUAUACAAAGACGAAAGUCAAAGUAGAAGGCCUAAAAG [Mat - Same State 1 - Rerun of Eli mod - D1]    23.9
AAAAAAUAAAAAAAGGAUAUAAUGCUACAGACAUGAGGAUCACCCAUGUAGGUAGCAUUAAUAAAAAAGAAGGAAAAAUAAAAAA [SS2: MS2 32]    9.09
AAAGACAUAGUUCAGGAUAUGGUAAUAGUCACAUGAGGAUCACCCAUGUUCUUUUAUAAGAACGAUCAGAAGGGAGGUAAAAAAA [SameState2 Malc#14]    151
GGCUGCGAUGUGAAGGAUAUCCGCGACUGGACAUGAGGAUCACCCAUGUAUGCUUGGAACAUGCCGGAGAAGGUCACGAAUGAUU [JR_SS002_Sub1216]    18.7

// switching to the query sequence
Query: I'd like to know its apparent KD of MS2 coat protein. The sequence in question is AAAAGACAUGAGGAUCACCCAUGUAAAAACAUAGGAGGAUAUGUCUGGAAACCAGACUGGACAGAAGGCCUUUGUC [SS1 - 63]
Response: 24.8

These measurements were taken from the supplement of paper PMC9170038.
